# System: human SMAD7 mRNA
# PROTOCOL NOTES: Antisense inhibition of human SMAD7 mRNA expression in Hep3B cells by 3-10-3 cEt gapmers, 10,000 nM, electroporation (Example 2)
# Type: cell-based
# CONDITIONS: Hep3B cells, electroporation with 10,000 nM antisense oligonucleotide, approximately 24 hours, primer probe set RTS5062, relative to untreated control cells
Strand notation (5' to 3'): a small letter for the sugar, then the base; units joined by * are phosphorothioate-linked, units joined directly phosphodiester-linked; [ ] holds rarer units or linkages, { } end groups; capitals alone tell only the bases. k = constrained ethyl (cEt); [5mC] = 5-methylcytosine; d = 2'-deoxy (DNA)
In this section, each of the substances is paired with its reported % inhibition of SMAD7 mRNA expression.
EXPERIMENTAL READOUT: % inhibition of SMAD7 mRNA expression

>  <SUBSTANCE>
799420 (antisense k[5mC]*kA*kA*dG*dA*d[5mC]*d[5mC]*dA*dA*dA*dA*dA*dT*kT*k[5mC]*kA) [compound 799420]

>  <MEAS VALUE>
32%

$$$$
>  <SUBSTANCE>
798946 (antisense kG*kA*kA*d[5mC]*dA*d[5mC]*dA*dA*dA*d[5mC]*dG*dA*dG*kG*kA*k[5mC]) [compound 798946]

>  <MEAS VALUE>
4%

$$$$
>  <SUBSTANCE>
799385 (antisense kT*kG*k[5mC]*d[5mC]*d[5mC]*dA*dA*d[5mC]*d[5mC]*d[5mC]*dT*dT*d[5mC]*kA*k[5mC]*kT) [compound 799385]

>  <MEAS VALUE>
31%

$$$$
>  <SUBSTANCE>
799185 (antisense kT*kT*kA*dA*dA*d[5mC]*d[5mC]*dT*dT*dT*dG*dT*dA*kG*kT*kT) [compound 799185]

>  <MEAS VALUE>
0%

$$$$
>  <SUBSTANCE>
799405 (antisense k[5mC]*kT*kG*dG*dG*dA*dA*d[5mC]*dA*dT*dT*dT*dA*k[5mC]*k[5mC]*k[5mC]) [compound 799405]

>  <MEAS VALUE>
28%

$$$$
>  <SUBSTANCE>
798745 (antisense kG*k[5mC]*kA*dG*d[5mC]*dT*d[5mC]*d[5mC]*dA*dG*d[5mC]*dT*dG*k[5mC]*k[5mC]*kG) [compound 798745]

>  <MEAS VALUE>
0%

$$$$
>  <SUBSTANCE>
799003 (antisense kA*k[5mC]*kA*d[5mC]*dA*dG*d[5mC]*d[5mC]*dG*d[5mC]*dA*d[5mC]*dA*k[5mC]*kT*k[5mC]) [compound 799003]

>  <MEAS VALUE>
0%

$$$$
>  <SUBSTANCE>
798712 (antisense kG*k[5mC]*k[5mC]*dA*d[5mC]*d[5mC]*dG*dG*d[5mC]*d[5mC]*d[5mC]*d[5mC]*dA*kT*kG*k[5mC]) [compound 798712]

>  <MEAS VALUE>
6%

$$$$
>  <SUBSTANCE>
798786 (kA*k[5mC]*kT*d[5mC]*dT*dA*dG*dT*dT*d[5mC]*dG*d[5mC]*dA*kG*kA*kG; antisense) [compound 798786]

>  <MEAS VALUE>
11%

$$$$
>  <SUBSTANCE>
772712 (kA*k[5mC]*k[5mC]*d[5mC]*dA*dT*dA*dG*dA*dA*dA*dA*dA*kA*kA*k[5mC]; antisense) [compound 772712]

>  <MEAS VALUE>
0%

$$$$
>  <SUBSTANCE>
799400 (antisense kG*kG*kA*dA*dA*dA*d[5mC]*d[5mC]*dT*d[5mC]*d[5mC]*dA*dA*kA*kT*kT) [compound 799400]

>  <MEAS VALUE>
0%

$$$$
>  <SUBSTANCE>
799324 (antisense kT*k[5mC]*k[5mC]*d[5mC]*dA*dG*dG*dA*dG*dG*dG*dT*dA*kT*kG*k[5mC]) [compound 799324]

>  <MEAS VALUE>
6%

$$$$
>  <SUBSTANCE>
799243 (k[5mC]*k[5mC]*kA*d[5mC]*dT*dG*dG*dT*dG*dT*dT*d[5mC]*dG*kA*k[5mC]*kG; antisense) [compound 799243]

>  <MEAS VALUE>
19%

$$$$
>  <SUBSTANCE>
799229 (kA*kA*k[5mC]*dA*d[5mC]*d[5mC]*d[5mC]*dA*dT*dA*dG*dA*dA*kA*kA*kA; antisense) [compound 799229]

>  <MEAS VALUE>
22%

$$$$
>  <SUBSTANCE>
790695 (kT*kG*kA*dA*dA*dT*dG*dG*dT*dG*d[5mC]*dT*d[5mC]*kT*kG*k[5mC]; antisense) [compound 790695]

>  <MEAS VALUE>
62%

$$$$
>  <SUBSTANCE>
799045 (kG*kG*kA*d[5mC]*dA*dG*dA*dG*d[5mC]*d[5mC]*dG*dT*dG*k[5mC]*kT*k[5mC]; antisense) [compound 799045]

>  <MEAS VALUE>
37%

$$$$
>  <SUBSTANCE>
799167 (antisense kA*kA*kG*dA*dA*d[5mC]*dA*dG*dT*dG*dT*d[5mC]*dG*kA*kA*kG) [compound 799167]

>  <MEAS VALUE>
58%

$$$$
>  <SUBSTANCE>
799343 (kA*k[5mC]*kT*dA*dA*dT*d[5mC]*dT*dA*d[5mC]*dA*dG*dA*k[5mC]*kT*kT; antisense) [compound 799343]

>  <MEAS VALUE>
53%

$$$$
>  <SUBSTANCE>
798746 (antisense kT*kG*kG*dA*dG*d[5mC]*dA*dG*d[5mC]*dA*dG*d[5mC]*dT*k[5mC]*k[5mC]*kA) [compound 798746]

>  <MEAS VALUE>
30%

$$$$
>  <SUBSTANCE>
799442 (antisense kG*kA*kT*dT*dT*dT*dA*dA*dA*dA*dG*dA*dG*kG*k[5mC]*k[5mC]) [compound 799442]

>  <MEAS VALUE>
0%

$$$$
>  <SUBSTANCE>
799146 (antisense kT*kA*k[5mC]*d[5mC]*dT*dT*dG*dG*dG*dT*dT*dA*dT*kG*kA*k[5mC]) [compound 799146]

>  <MEAS VALUE>
0%

$$$$
>  <SUBSTANCE>
799443 (antisense kT*k[5mC]*kA*dT*dG*d[5mC]*dT*dG*dA*dT*dT*dT*dT*kA*kA*kA) [compound 799443]

>  <MEAS VALUE>
24%

$$$$
>  <SUBSTANCE>
798675 (antisense k[5mC]*kA*kG*dG*d[5mC]*dG*d[5mC]*dA*dG*dG*d[5mC]*dG*dA*k[5mC]*kA*kG) [compound 798675]

>  <MEAS VALUE>
51%

$$$$
>  <SUBSTANCE>
798726 (antisense k[5mC]*kA*k[5mC]*d[5mC]*dT*d[5mC]*dG*d[5mC]*dA*d[5mC]*d[5mC]*dG*d[5mC]*k[5mC]*kT*kT) [compound 798726]

>  <MEAS VALUE>
7%

$$$$

---

# System: human SMAD7 mRNA
# PROTOCOL NOTES: Antisense inhibition of human SMAD7 mRNA expression in Hep3B cells by 3-10-3 cEt gapmers, 10,000 nM, electroporation (Example 2)
# Format: cell-based
# CONDITIONS: Hep3B cells, electroporation with 10,000 nM antisense oligonucleotide, approximately 24 hours, primer probe set RTS5062, relative to untreated control cells
Strand notation (5' to 3'): a small letter for the sugar, then the base; units joined by * are phosphorothioate-linked, units joined directly phosphodiester-linked; [ ] holds rarer units or linkages, { } end groups; capitals alone tell only the bases. k = constrained ethyl (cEt); [5mC] = 5-methylcytosine; d = 2'-deoxy (DNA)
In this section, each of the substances is paired with its reported % inhibition of SMAD7 mRNA expression.
EXPERIMENTAL READOUT: % inhibition of SMAD7 mRNA expression (%)

>  <SUBSTANCE>
798760 (kG*kA*kG*dG*dG*d[5mC]*dG*dG*d[5mC]*dT*dG*d[5mC]*dG*k[5mC]*kA*kG; antisense) [compound 798760]

>  <MEAS VALUE>
47

$$$$
>  <SUBSTANCE>
799005 (antisense k[5mC]*kG*kT*dG*d[5mC]*dA*d[5mC]*dA*d[5mC]*dA*d[5mC]*dA*dG*k[5mC]*k[5mC]*kG) [compound 799005]

>  <MEAS VALUE>
0

$$$$
>  <SUBSTANCE>
799085 (antisense kG*k[5mC]*k[5mC]*d[5mC]*dT*dT*dG*dG*dG*dA*dA*dG*d[5mC]*k[5mC]*k[5mC]*kA) [compound 799085]

>  <MEAS VALUE>
10

$$$$
>  <SUBSTANCE>
798809 (kT*kT*kG*dG*dG*dA*dA*dT*d[5mC]*dT*dG*dA*dA*kA*kG*k[5mC]; antisense) [compound 798809]

>  <MEAS VALUE>
2

$$$$
>  <SUBSTANCE>
799132 (antisense kA*kA*kG*d[5mC]*dA*dT*dG*dT*d[5mC]*d[5mC]*d[5mC]*dT*d[5mC]*k[5mC]*k[5mC]*kA) [compound 799132]

>  <MEAS VALUE>
38

$$$$
>  <SUBSTANCE>
799008 (k[5mC]*k[5mC]*kA*dT*d[5mC]*dT*dG*d[5mC]*d[5mC]*dG*d[5mC]*dT*d[5mC]*k[5mC]*kT*kG; antisense) [compound 799008]

>  <MEAS VALUE>
60

$$$$
